B1: CDC14A (parent)
chain: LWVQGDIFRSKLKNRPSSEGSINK

Variants of: B1
Assay: protein stability index of a GFP-peptide fusion (GPS, HEK-293T) (PSI 1-6); higher = more stable;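 note: lentivirally expressed fusions sorted by FACS into six bins by GFP to DsRed ratio, PSI derived from sequencing read proportions per bin multiplied by bin number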
Conditions: c terminus: a fixed tail appended
Let's look at some variants and their measured protein stability index.
VALUE_TYPE: protein stability index

INSERT INTO measurements (variant_id, endpoint_value) VALUES
  ('P16Q', 2.5),
  ('G20P', 2.04),
  ('I7A', 3.29),
  ('S18T', 2.45),
  ('I22A', 3.1),
  ('E19T', 1.88),
  ('P16R', 2.7),
  ('I22R', 3.2),
  ('W2V', 2.6),
  ('E19F', 1.7),
  ('S21G', 2.84),
  ('P16A', 2.8),
  ('F8L', 2.75),
  ('Q4H', 2.67),
  ('D6P', 2.34),
  ('P16I', 2.36),
  ('Q4K', 2.19),
  ('N14S', 1.99),
  ('K13Y', 1.89),
  ('L1E', 4.43),
  ('W2T', 4.6),
  ('S21I', 2.08);
